Target: PKA-N-HiBiT (Homo sapiens, UniProt P17612)
Test: SDR assay, PKA-N-HiBiT
Conditions: PKA-N-HiBiT qHTS, SDR assay; average maximal response
Where a name gives a salt, the structure may show the parent alone.
// Not met strictly below 4 in SDR Ave Max Response; Met otherwise

Field: example entries. Status: answers known.
>  <compound>
Cc1cc(-c2cc(O)ccc2Cl)cc2nnc(Nc3ccc(OCCN4CCCC4)cc3)nc12 [TG 100572 HCl]

>  <assigned category>
Not met

$$$$
>  <compound>
Cc1cn(-c2cc(F)cc(NC(=O)c3ccc(C)c(Nc4nccc(-c5cccnc5)n4)c3)c2)cn1

>  <assigned category>
Not met

$$$$
>  <compound>
COc1ccc(S(=O)(=O)N(C(C)=O)c2ccccc2/C=C/c2cc[n+]([O-])cc2)cc1

>  <assigned category>
Met

$$$$
>  <compound>
C[C@@H](NC(=O)c1ncnc(N)c1Cl)c1ncc(C(=O)Nc2cc(C(F)(F)F)c(Cl)cn2)s1

>  <assigned category>
Not met

$$$$
>  <compound>
CO[C@H]1/C=C/O[C@@]2(C)Oc3c(C)c(O)c4c(O)c(c(/C=N\N5CCN(C6CCCC6)CC5)c(O)c4c3C2=O)NC(=O)C(C)=C/C=C/[C@H](C)[C@H](O)[C@@H](C)[C@@H](O)[C@@H](C)[C@H](OC(C)=O)[C@@H]1C

>  <assigned category>
Not met

$$$$

Does the compound O=C(NOCC(O)CO)c1cc(Br)c(F)c(F)c1Nc1ccc(I)cc1F (stereo not drawn) have recorded SDR Ave Max Response that is 4 or more? Not met

Does the compound CNC(=O)c1ccccc1Sc1ccc2c(/C=C/c3ccccn3)n[nH]c2c1 have recorded SDR Ave Max Response that is 4 or more? Not met

Does the compound C#Cc1cccc(Nc2ncnc3cc4c(cc23)OCCOCCOCCO4)c1 [Icotinib HCl] have recorded SDR Ave Max Response that is 4 or more? Not met

Does the compound COc1ccc(CNC(=O)Nc2ncc([N+](=O)[O-])s2)cc1 have recorded SDR Ave Max Response that is 4 or more? Not met

Does the compound S=C(NCc1ccc2c(c1)OCO2)N1CCN(c2ncnc3c2oc2ccccc23)CC1 have recorded SDR Ave Max Response that is 4 or more? Not met

Does the compound Nc1ncnc2c1c(-c1cnc3[nH]ccc3c1)nn2C1CCCC1 have recorded SDR Ave Max Response that is 4 or more? Met

Does the compound Cc1ncc(NC(=O)c2ccc(CN3CCN(C)CC3)c(C(F)(F)F)c2)cc1Nc1nccc(-c2cccnc2)n1 have recorded SDR Ave Max Response that is 4 or more? Met

Does the compound O=C(NC1CCNCC1)c1n[nH]cc1NC(=O)c1c(Cl)cccc1Cl have recorded SDR Ave Max Response that is 4 or more? Not met

Does the compound COc1ccccc1-c1c[nH]c2ncc(-c3cncc(C(=O)N(C)C)c3)cc12 have recorded SDR Ave Max Response that is 4 or more? Met

Does the compound COc1ccc(-n2c(C)c([N+](=O)[O-])c3ccc(O)cc32)cc1 have recorded SDR Ave Max Response that is 4 or more? Not met

Does the compound COc1cc(N2CCN(C)CC2)ccc1Nc1nc(N)c(C(=O)c2c(Cl)cccc2Cl)s1 have recorded SDR Ave Max Response that is 4 or more? Not met

Does the compound C=CC(=O)Nc1cccc(Oc2nc(Nc3ccc(N4CCN(C)CC4)cc3OC)ncc2Cl)c1 have recorded SDR Ave Max Response that is 4 or more? Not met

Does the compound Cc1cccc(/C=N/Nc2cc(N3CCOCC3)nc(OCCc3ccccn3)n2)c1 have recorded SDR Ave Max Response that is 4 or more? Not met

Does the compound CN1CCN([C@H]2CC[C@H](n3cc(-c4ccc(Oc5ccccc5)cc4)c4c(N)ncnc43)CC2)CC1 have recorded SDR Ave Max Response that is 4 or more? Not met
